- System: P. pastoris YGLY21058 strain producing glycosylated insulin precursor (GIP)
- ASSAY NOTES: Screening of sugars and sugar alcohols as osmoprotectants in fed-batch cultivation
- Assay type: cell-based, Pichia pastoris
- CONDITION PARAMETERS: 50 g/L in initial batch BSGY; 80 h of induction
MEASUREMENT KIND: Index of cell lysis (double stranded DNA released into culture medium)

*Q* Look up Index of cell lysis (double stranded DNA released into culture medium): OC[C@@H](O)[C@@H](O[C@H]1O[C@H](CO)[C@@H](O)[C@H](O)[C@H]1O)[C@H](O)[C@@H](O)CO [Maltitol, 4-O-α-glucopyranosyl-D-sorbitol]
*A* < 1 mg DNA/L
